Some binders, each annotated with its measured IC 50 (ng/ml), ISRE dual luciferase reporter assay.
Target Of Assay: human IFN-α5 (human, UniProt P01569 24-189, limits assumed)
Sequence (P01569 24-189 limits assumed): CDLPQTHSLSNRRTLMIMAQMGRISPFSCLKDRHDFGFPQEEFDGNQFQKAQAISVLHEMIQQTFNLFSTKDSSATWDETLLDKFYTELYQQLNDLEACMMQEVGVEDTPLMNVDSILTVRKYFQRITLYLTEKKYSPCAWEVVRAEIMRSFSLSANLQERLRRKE
Protocol Notes: cell-based or functional assay
Write down the numeric answer in ng/mL and omit the unit.

Would you please look over these solved cases?
>  <Binder>
26B9 (antibody, human IgG1, kappa, V domains shown, human-derived IgG1, kappa; also called MAB 26B9; hMAB 26B9) VH: QILLQESGPGLVKPTETLSLTCSVSGDSISDSSHYWAWIRQPPGKGPEWIGSVYFSSMTHYNPSLKSRVSISVDKPKNQFSLKVTSVTVADTATYYCARQALARVGAMNWFDPWGQGSLVTVSS VL: DIIMTQSPDSLPVSLGEGVTINCKSSQSVFFTSSNKSCLAWYQQKPGKSPKLLIYWASTRQSGVPDRFRGSGSGTDFSLTITSLQAEDVAVYFCQQCQTSPPTFGGGTRLEIKR

>  <Measured Result>
3.74

$$$$
>  <Binder>
12H5 (antibody, human IgG1, kappa, V domains shown) VH: QVQLIQSGPEVKRPGASVKVSCKASENTFDTHYINWVRQAPGQGLTWLGWLNPTTGKTGFPQKFKGRVILTSDTSLNTAYMEVSRLTSEDTAVYFCARVLKLSDEYNYGFDVWGQGTTVIVSS VL: DIQVTQSPSSLSASIGDRVTITCRASQNILTFINWYQHKPGKAPKLLIYAASVLQNEVPSRFSGSGSGTDFTLTITSLQPDDFGTYYCQQTYLTPQCSFGQGTKVEIKR

>  <Measured Result>
22.6

$$$$
>  <Binder>
8H1 (antibody, human IgG1, kappa, V domains shown) VH: QVQLVQSGAEVKKPGASVKVSCKASGQTFTSDDINWVRQAPGQGLEWMGWRNPNTQDTGYAQKFHGRLTLTSNSSISTSYLELSGLRSEDTAVYYCARAGTSTLTGHYFALGVWGQGTTVIVSS VL: DIQLTQSPSSLSASVGDRVTITCQATQDISKYLNWYQQKPGKVPKLLIYETSNLEVGVPSRFSGSGSGTHFTLTISSLQAEDFATYYCQQYENFPFTFGGGTKVEIKR

>  <Measured Result>
1.78

$$$$

Now consider a different binder.
Documented IC 50 (ng/ml), ISRE dual luciferase reporter assay of 50E11 (antibody, human IgG1, kappa, V domains shown) VH: QVQLVQSGAEMKKPGSSVKVSCKDFGGTFSVYGVNWVRQAPGQGLEWMGGLIPVIGPANYAQKFQGRITITADESTSTAYMELSSLRFDDTAIYYCVRDDNEYWGQGTLVTVSS VL: EMVLTQSPATLSLSPGERATLSCRASQTVSTFLAWYQQKPGQVPRLLVYDISSRANGTPARFSGGGSGTDFTLTISSLELEDFAVYYCQWRSNWPPSLTFGGGTRVEIKR : 0.91
